B1: KCNG1 (parent)
chain: AVNLSVSTLPSLREEEEQVRAHAP

variants of: B1; assay: protein stability index of a GFP-peptide fusion (GPS, HEK-293T) (PSI 1-6); higher = more stable; conditions: c terminus: a fixed tail appended;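 also: lentivirally expressed fusions sorted by FACS into six bins by GFP to DsRed ratio, PSI derived from sequencing read proportions per bin multiplied by bin number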
protein stability index listing for selected variants.
Please reply with the value in numeric form only.

Sample answers from the record:
[[record]]
residue_string = "AVNLSVSTLPSLREEEEQVRAHAW [P24W]"
attribute_measured = "protein stability index"
recorded_result = 4

[[record]]
residue_string = "AVNLSVSTLGSLREEEEQVRAHAP [P10G]"
attribute_measured = "protein stability index"
recorded_result = 4.71

[[record]]
residue_string = "AVNLSKSTLPSLREEEEQVRAHAP [V6K]"
attribute_measured = "protein stability index"
recorded_result = 5.01

[[record]]
residue_string = "AVNLSVSTLPSLREEEEQVTAHAP [R20T]"
attribute_measured = "protein stability index"
recorded_result = 5.27

[[record]]
residue_string = "AVNLSVSTLPSLREEEEQVRNHAP [A21N]"
attribute_measured = "protein stability index"
recorded_result = 4.28

[[record]]
residue_string = "AVNLSVSTAPSLREEEEQVRAHAP [L9A]"
attribute_measured = "protein stability index"
recorded_result = 5.36

[[record]]
residue_string = "AVNLSVSTLPSLREEVEQVRAHAP [E16V]"
attribute_measured = "protein stability index"
recorded_result = 4.32

[[record]]
residue_string = "AVNLSVHTLPSLREEEEQVRAHAP [S7H]"
attribute_measured = "protein stability index"
recorded_result = 5.03


Form field: reported protein stability index of AVNLSVSTLPSLREEECQVRAHAP [E17C] 4.2

For the variant shown here, AVNLSVSTLPSLPEEEEQVRAHAP [R13P] , give the reported protein stability index. 5.67
